These entries and their values trace back to paper PMC7699847.

Entries and their IC50 values follow.
target: sucrase; assay: Sucrase inhibition assay; format: biochemical; conditions: mean ± SD; triplicate; sucrose substrate, 37 °C; read-out: IC50 Values (μM) Against Sucrase
Entry rule: numbers only, all in µM.

Sample C[C@H]1O[C@H](O[C@H]2[C@H](O)[C@@H](O)[C@@H](O[C@H]3[C@H](O)[C@@H](O)C(O)O[C@@H]3CO)O[C@@H]2CO)[C@H](O)[C@@H](O)[C@@H]1N[C@H]1C=C(CO)[C@@H](O)[C@H](O)[C@H]1O (some centres unmarked) [acarbose, reference compound] — what was its IC50? 11.3

Lookup CC(C)C(=O)OCC1OC(OC2C(CO)OC(OC3C(CO)OC(OC4C(CO)OC(O)C(O)C4O)C(O)C3O)C(O)C2O)C(O)C(O)C1OC1OC(C)C(NC2C=C(CO)C(O)C(O)C2O)C(O)C1O (centres unmarked) [Compound 1] 5.5

###

biological target: sucrase; assay: Sucrase inhibition assay; assay type: biochemical; settings: mean ± SD; triplicate; sucrose substrate, 37 °C; read-out: IC50 Values (μM) Against Sucrase
measurement-kind: IC50 (µM)
Entry rule: numbers only, all in µM.

Sample CC(C)CC(=O)OC[C@H]1O[C@H](O[C@H]2[C@H](O)[C@@H](O)[C@@H](O[C@H]3[C@H](O)[C@@H](O)[C@@H](O[C@H]4[C@H](O)[C@@H](O)C(O)O[C@@H]4CO)O[C@@H]3CO)O[C@@H]2CO)[C@H](O)[C@@H](O)[C@@H]1O[C@H]1O[C@H](C)[C@@H](N[C@H]2C=C(CO)[C@@H](O)[C@H](O)[C@H]2O)[C@H](O)[C@H]1O (stereo partly drawn) — what was its IC50? 9.34

Lookup CCC(=O)OC[C@H]1O[C@H](O[C@H]2[C@H](O)[C@@H](O)[C@@H](O[C@H]3[C@H](O)[C@@H](O)[C@@H](O[C@H]4[C@H](O)[C@@H](O)C(O)O[C@@H]4CO)O[C@@H]3CO)O[C@@H]2CO)[C@H](O)[C@@H](O)[C@@H]1O[C@H]1O[C@H](C)[C@@H](N[C@H]2C=C(CO)[C@@H](O)[C@H](O)[C@H]2O)[C@H](O)[C@H]1O (stereo partly drawn) 2.36

Lookup CC(O)CC(=O)OC[C@H]1O[C@H](O[C@H]2[C@H](O)[C@@H](O)[C@@H](O[C@H]3[C@H](O)[C@@H](O)[C@@H](O[C@H]4[C@H](O)[C@@H](O)C(O)O[C@@H]4CO)O[C@@H]3CO)O[C@@H]2CO)[C@H](O)[C@@H](O)[C@@H]1O[C@H]1O[C@H](C)[C@@H](N[C@H]2C=C(CO)[C@@H](O)[C@H](O)[C@H]2O)[C@H](O)[C@H]1O (stereo partly drawn) [Compound 7, D6-O-β-hydroxybutyryl-acarviostatin I03] 3.68

###

Entries and their IC50 values follow.
Target: pancreatic lipase (PL) (Sus scrofa, UniProt P00591)
Construct: purchased Sigma Aldrich Co. (St Louis, MO, USA)
Sequence (P00591 1-450): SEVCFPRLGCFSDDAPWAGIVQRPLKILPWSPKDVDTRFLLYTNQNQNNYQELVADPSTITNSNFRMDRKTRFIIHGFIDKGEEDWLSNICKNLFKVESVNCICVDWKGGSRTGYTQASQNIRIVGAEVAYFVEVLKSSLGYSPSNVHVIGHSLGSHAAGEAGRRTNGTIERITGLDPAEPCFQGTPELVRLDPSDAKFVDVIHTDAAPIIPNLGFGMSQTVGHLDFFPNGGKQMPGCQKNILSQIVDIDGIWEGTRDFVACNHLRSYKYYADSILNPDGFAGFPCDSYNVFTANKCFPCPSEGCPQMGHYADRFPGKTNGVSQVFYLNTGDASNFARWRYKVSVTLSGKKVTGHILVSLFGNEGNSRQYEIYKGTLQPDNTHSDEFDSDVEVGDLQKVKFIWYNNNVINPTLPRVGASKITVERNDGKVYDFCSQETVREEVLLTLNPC
Assay: Pancreatic lipase (PL) inhibition assay (pNP laurate method)
Type: biochemical
Conditions: mean ± SD; triplicate; pNP laurate substrate, 30 min at 37 °C, Tris buffer pH 8.2; read-out: IC50 Values (μM) Against PL
Entry rule: numbers only, all in µM.

CCC(=O)OC[C@H]1O[C@H](O[C@H]2[C@H](O)[C@@H](O)[C@@H](O[C@H]3[C@H](O)[C@@H](O)[C@@H](O[C@H]4[C@H](O)[C@@H](O)C(O)O[C@@H]4CO)O[C@@H]3CO)O[C@@H]2CO)[C@H](O)[C@@H](O)[C@@H]1O[C@H]1O[C@H](C)[C@@H](N[C@H]2C=C(CO)[C@@H](O)[C@H](O)[C@H]2O)[C@H](O)[C@H]1O (stereo partly shown)    15.9

Please tell me: IC50 of CC(O)CC(=O)OC[C@H]1O[C@H](O[C@H]2[C@H](O)[C@@H](O)[C@@H](O[C@H]3[C@H](O)[C@@H](O)[C@@H](O[C@H]4[C@H](O)[C@@H](O)C(O)O[C@@H]4CO)O[C@@H]3CO)O[C@@H]2CO)[C@H](O)[C@@H](O)[C@@H]1O[C@H]1O[C@H](C)[C@@H](N[C@H]2C=C(CO)[C@@H](O)[C@H](O)[C@H]2O)[C@H](O)[C@H]1O (stereo partly drawn) [Compound 7, D6-O-β-hydroxybutyryl-acarviostatin I03] , system pancreatic lipase (PL) (Sus scrofa, UniProt P00591)? 8.1

Lookup CC(C)C(=O)OCC1OC(OC2C(CO)OC(OC3C(CO)OC(OC4C(CO)OC(O)C(O)C4O)C(O)C3O)C(O)C2O)C(O)C(O)C1OC1OC(C)C(NC2C=C(CO)C(O)C(O)C2O)C(O)C1O (stereo not shown) 2.16

Lookup CC(=O)OC[C@H]1O[C@H](O[C@H]2[C@H](O)[C@@H](O)[C@@H](O[C@H]3[C@H](O)[C@@H](O)[C@@H](O[C@H]4[C@H](O)[C@@H](O)C(O)O[C@@H]4CO)O[C@@H]3CO)O[C@@H]2CO)[C@H](O)[C@@H](O)[C@@H]1O[C@H]1O[C@H](C)[C@@H](N[C@H]2C=C(CO)[C@@H](O)[C@H](O)[C@H]2O)[C@H](O)[C@H]1O (stereo partly shown) 19.7

###

Entries and their IC50 values follow.
target: pancreatic lipase (PL) (Sus scrofa); construct: purchased Sigma Aldrich Co. (St Louis, MO, USA); experiment: Pancreatic lipase (PL) inhibition assay (pNP laurate method); format: biochemical; details: mean ± SD; triplicate; pNP laurate substrate, 30 min at 37 °C, Tris buffer pH 8.2; read-out: IC50 Values (μM) Against PL
Entry rule: numbers only, all in µM.

CC(C)CC(=O)OC[C@H]1O[C@H](O[C@H]2[C@H](O)[C@@H](O)[C@@H](O[C@H]3[C@H](O)[C@@H](O)[C@@H](O[C@H]4[C@H](O)[C@@H](O)C(O)O[C@@H]4CO)O[C@@H]3CO)O[C@@H]2CO)[C@H](O)[C@@H](O)[C@@H]1O[C@H]1O[C@H](C)[C@@H](N[C@H]2C=C(CO)[C@@H](O)[C@H](O)[C@H]2O)[C@H](O)[C@H]1O (stereo partly drawn)    3.2
CC(C)C(=O)OCC1OC(OC2C(CO)OC(OC3C(CO)OC(OC4C(CO)OC(O)C(O)C4O)C(O)C3O)C(O)C2O)C(O)C(O)C1OC1OC(C)C(NC2C=C(CO)C(OC3OC(CO)C(OC4OC(C)C(NC5C=C(CO)C(O)C(O)C5O)C(O)C4O)C(O)C3O)C(O)C2O)C(O)C1O (stereo not drawn)    0.82

# next molecule below
Sample CCC(C)C(=O)OCC1OC(OC2C(CO)OC(OC3C(CO)OC(OC4C(CO)OC(O)C(O)C4O)C(O)C3O)C(O)C2O)C(O)C(O)C1OC1OC(C)C(NC2C=C(CO)C(O)C(O)C2O)C(O)C1O (stereo not drawn) — what was its IC50? 4.92

###

Entries and their IC50 values follow.
target: sucrase; assay: Sucrase inhibition assay; type: biochemical; conditions: mean ± SD; triplicate; sucrose substrate, 37 °C; read-out: IC50 Values (μM) Against Sucrase
Entry rule: numbers only, all in µM.

Check out these entries, answers already filled in.
CC(=O)OC[C@H]1O[C@H](O[C@H]2[C@H](O)[C@@H](O)[C@@H](O[C@H]3[C@H](O)[C@@H](O)[C@@H](O[C@H]4[C@H](O)[C@@H](O)C(O)O[C@@H]4CO)O[C@@H]3CO)O[C@@H]2CO)[C@H](O)[C@@H](O)[C@@H]1O[C@H]1O[C@H](C)[C@@H](N[C@H]2C=C(CO)[C@@H](O)[C@H](O)[C@H]2O)[C@H](O)[C@H]1O (stereo partly drawn)    2.98
CCC(C)C(=O)OCC1OC(OC2C(CO)OC(OC3C(CO)OC(OC4C(CO)OC(O)C(O)C4O)C(O)C3O)C(O)C2O)C(O)C(O)C1OC1OC(C)C(NC2C=C(CO)C(O)C(O)C2O)C(O)C1O (stereo not drawn)    3.12

# next compound below
Sample CC(C)C(=O)OCC1OC(OC2C(CO)OC(OC3C(CO)OC(OC4C(CO)OC(O)C(O)C4O)C(O)C3O)C(O)C2O)C(O)C(O)C1OC1OC(C)C(NC2C=C(CO)C(OC3OC(CO)C(OC4OC(C)C(NC5C=C(CO)C(O)C(O)C5O)C(O)C4O)C(O)C3O)C(O)C2O)C(O)C1O (stereo not drawn) — what was its IC50? 1.45
